# assay-method-text: Inhibition of calf brain tubulin polymerization
# Design: species or system Bos taurus
Measured IC50 of individual entries

[
  {
    "compound": "COc1ccc(CC2CCCCc3c2cc(OC)c(OC)c3OC)c(O)c1O (stereo not given)",
    "inequality-symbol": "=",
    "IC50 / µM": 7.4
  },
  {
    "compound": "COc1ccc2c(c1O)CCCC=C2c1cc(OC)c(OC)c(OC)c1",
    "inequality-symbol": "=",
    "IC50 / µM": 1.7
  },
  {
    "compound": "COc1ccc(C(=O)C2=CCCc3c2cc(OC)c(OC)c3OC)c(O)c1O",
    "inequality-symbol": ">",
    "IC50 / µM": 40
  },
  {
    "compound": "COc1ccc(C(=O)C2=CCCc3c2cc(OC)c(OC)c3OC)cc1O",
    "inequality-symbol": "=",
    "IC50 / µM": 24
  },
  {
    "compound": "COc1ccc2c(c1O)CCCC(c1cc(OC)c(OC)c(OC)c1)=C2",
    "inequality-symbol": ">",
    "IC50 / µM": 40
  },
  {
    "compound": "COc1ccc(C(=O)C2=CCCCc3c2cc(OC)c(OC)c3OC)c(O)c1O",
    "inequality-symbol": ">",
    "IC50 / µM": 40
  },
  {
    "compound": "COc1ccc2c(c1)CCCC=C2c1cc(OC)c(OC)c(OC)c1",
    "inequality-symbol": "=",
    "IC50 / µM": 1.4
  },
  {
    "compound": "COc1ccc(C(=O)C2=CCCCc3c2cc(OC)c(OC)c3OC)cc1O",
    "inequality-symbol": ">",
    "IC50 / µM": 40
  },
  {
    "compound": "COc1cc2c(cc1O)C(=O)C1c3cc(OC)c(OC)c(OC)c3CCC21 (stereo not given)",
    "inequality-symbol": ">",
    "IC50 / µM": 40
  },
  {
    "compound": "COc1ccc2c(c1)CCCC(c1cc(OC)c(OC)c(OC)c1)=C2",
    "inequality-symbol": ">",
    "IC50 / µM": 40
  }
]
